Reported values of Activity for individual entries
- procedure-details: Antioxidant activity assessed as DPPH radical scavenging activity at 100 ug/ml (reference value: 22 to 40.2 %)
- Format: functional
- experimental-conditions: dose 100.0 µg/ml
readout-name: Activity (%)

{"chemical-smiles": "COc1ccc(-n2c(SCC(=O)Nc3ccc(OC(=O)c4ccco4)cc3)nc(C)c2C(C)=O)cc1", "readout-name": "Activity", "output-unit": "%", "measured-number": 85.2}
{"chemical-smiles": "CC(=O)c1c(C)nc(SCC(=O)Nc2ccc(OC(=O)c3ccc(Cl)cc3)cc2)n1-c1ccc(Cl)cc1", "readout-name": "Activity", "output-unit": "%", "measured-number": 84.5}
{"chemical-smiles": "COc1ccc(-n2c(SCC(=O)Nc3ccc(OC(=O)c4cccs4)cc3)nc(C)c2C(C)=O)cc1", "readout-name": "Activity", "output-unit": "%", "measured-number": 81.6}
{"chemical-smiles": "CC(=O)c1c(C)nc(SCC(=O)Nc2ccc(OCc3ccccc3)cc2)n1-c1ccc(F)cc1", "readout-name": "Activity", "output-unit": "%", "measured-number": 84.7}
{"chemical-smiles": "CC(=O)c1c(C)nc(SCC(=O)Nc2ccc(OCc3ccc(Cl)cc3)cc2)n1-c1ccccc1", "readout-name": "Activity", "output-unit": "%", "measured-number": 84.7}
{"chemical-smiles": "O=C1O[C@H]([C@@H](O)CO)C(O)=C1O", "readout-name": "Activity", "output-unit": "%", "measured-number": 91.7}
{"chemical-smiles": "CC(=O)c1c(C)nc(SCC(=O)Nc2ccc(OCc3ccc(Cl)cc3)cc2)n1-c1ccc(Cl)cc1", "readout-name": "Activity", "output-unit": "%", "measured-number": 85.7}

---

- procedure-details: Antioxidant activity assessed as hydrogen peroxide radical scavenging activity at 100 ug/ml (reference value: 23.6 to 43.1 %)
- Type: functional
- experimental-conditions: dose 100.0 µg/ml
Reported values of Activity for individual entries

{"chemical-smiles": "O=C1O[C@H]([C@@H](O)CO)C(O)=C1O", "Activity, %": 91.7}
{"chemical-smiles": "CC(=O)c1c(C)nc(SCC(=O)Nc2ccc(OCc3ccc(Cl)cc3)cc2)n1-c1ccccc1", "Activity, %": 79.6}
{"chemical-smiles": "CC(=O)c1c(C)nc(SCC(=O)Nc2ccc(OC(=O)c3ccco3)cc2)n1-c1ccc(F)cc1", "Activity, %": 85.1}
{"chemical-smiles": "CC(=O)c1c(C)nc(SCC(=O)Nc2ccc(OC(=O)c3ccc(Cl)cc3)cc2)n1-c1ccc(Cl)cc1", "Activity, %": 93.6}
{"chemical-smiles": "COc1ccc(-n2c(SCC(=O)Nc3ccc(OC(=O)c4ccco4)cc3)nc(C)c2C(C)=O)cc1", "Activity, %": 90}
{"chemical-smiles": "CC(=O)c1c(C)nc(SCC(=O)Nc2ccc(OCc3ccc(F)cc3)cc2)n1-c1ccc(F)cc1", "Activity, %": 71.2}
{"chemical-smiles": "CC(=O)c1c(C)nc(SCC(=O)Nc2ccc(OC(=O)c3ccc(Cl)cc3)cc2)n1-c1ccc(Br)cc1", "Activity, %": 86.1}

---

- Tested on: Staphylococcus aureus
- procedure-details: Antibacterial activity against Staphylococcus aureus MTCC 96 assessed as bacterial growth inhibition
- Type: functional
readout-name: MIC (µg/mL)

{"chemical-smiles": "CC(=O)c1c(C)nc(SCC(=O)Nc2ccc(OC(=O)c3ccco3)cc2)n1-c1ccc(Br)cc1", "measured-number": 100}
{"chemical-smiles": "CC(=O)c1c(C)nc(SCC(=O)Nc2ccc(OCc3ccc(F)cc3)cc2)n1-c1ccc(Cl)cc1", "measured-number": 100}
{"chemical-smiles": "CC(=O)c1c(C)nc(SCC(=O)Nc2ccc(OCc3ccc(Cl)cc3)cc2)n1-c1ccc(Cl)cc1", "measured-number": 100}
